Ref: patent US20060024289

tested-system: T1, Ac-IKPD-AMC
T1 chain: XIKPDX
method-notes: Michaelis-Menten kinetics of fluorogenic tetrapeptide hydrolysis
measure-name: Km (µM)
Numbers only, in µM.

Form field Km, entry rat granzyme B N218T (protein) IIGGHEAKPHSRPYMAYLQIMDEYSGSKKCGGFLIREDFVLTAAHCSGSKINVTLGAHNIKEQEKMQQIIPVVKIIPHPAYNSKTISNDIMLLKLKSKAKRSSAVKPLNLPRRNVKVKPGDVCYVAGWGKLGPMGKYSDTLQEVELTVQEDQKCESYLKNYFDKANEICAGDPKIKRASFRGDSGGPLVCKKVAAGIVSYGQTDGSTPRAFTKVSTFLSWIKKTMKKS : 1800
